Subject Of Test: DRB4*0101 (Homo sapiens, UniProt P01903+P13762, G164S)
Protocol Details: biochemical
Type: binding
Here, each record is paired with measured IC50 data.
Measurement Type: IC50

INSERT INTO results (compound, observed) VALUES
  ('CSCC[C@H](NC(=O)[C@H](CS)NC(=O)[C@H](CC(N)=O)NC(=O)[C@H](CC(=O)O)NC(=O)[C@H](CCCCN)NC(=O)[C@H](CC(N)=O)NC(=O)CN)C(=O)N[C@H](C(=O)N[C@@H](Cc1ccc(O)cc1)C(=O)N[C@H](C(=O)N[C@@H](C)C(=O)N[C@@H](Cc1c[nH]c2ccccc12)C(=O)N[C@@H](CC(=O)O)C(=O)N[C@@H](CO)C(=O)N[C@H](C(=O)O)C(C)C)C(C)C)[C@@H](C)O [Peptide 1601.09]', '41 nM'),
  ('CC(C)C[C@H](NC(=O)[C@H](CCC(N)=O)NC(=O)[C@H](CCCCN)NC(=O)[C@@H](NC(=O)[C@H](CC(C)C)NC(=O)[C@H](CCC(N)=O)NC(=O)[C@@H](NC(=O)[C@H](C)NC(=O)[C@H](CO)NC(=O)[C@@H](NC(=O)[C@@H](NC(=O)[C@H](CC(=O)O)NC(=O)[C@@H](N)CC(=O)O)[C@@H](C)O)C(C)C)[C@@H](C)O)C(C)C)C(=O)N[C@@H](CCC(N)=O)C(=O)N[C@@H](Cc1c[nH]cn1)C(=O)O [Peptide 89.0162]', '128 nM'),
  ('CSCC[C@H](NC(=O)[C@H](Cc1ccc(O)cc1)NC(=O)[C@H](Cc1ccc(O)cc1)NC(=O)[C@@H](NC(=O)[C@@H](N)CO)C(C)C)C(=O)N[C@H](C(=O)N[C@@H](CC(=O)O)C(=O)N[C@@H](C)C(=O)NCC(=O)N[C@H](C(=O)N[C@@H](Cc1c[nH]c2ccccc12)C(=O)N[C@@H](CC(=O)O)C(=O)N[C@@H](CCCCN)C(=O)N[C@H](C(=O)N[C@@H](C)C(=O)O)[C@@H](C)O)[C@@H](C)O)[C@@H](C)O [Peptide 90.0182]', '7 nM'),
  ('CC[C@H](C)[C@H](NC(=O)[C@H](Cc1c[nH]c2ccccc12)NC(=O)[C@H](CCC(=O)O)NC(=O)[C@@H]1CCCN1)C(=O)N[C@@H](CCC(N)=O)C(=O)N[C@@H](CCCNC(=N)N)C(=O)N[C@@H](CCC(N)=O)C(=O)N[C@H](C(=O)N[C@H](C(=O)N[C@@H](CC(C)C)C(=O)N[C@@H](CCC(N)=O)C(=O)N[C@@H](Cc1c[nH]cn1)C(=O)N[C@@H](CO)C(=O)N[C@@H](Cc1ccccc1)C(=O)N[C@@H](CC(N)=O)C(=O)O)C(C)C)[C@@H](C)O [Peptide 89.0011]', '4.5 nM'),
  ('CC[C@H](C)[C@H](N)C(=O)N[C@@H](CCC(=O)O)C(=O)N[C@@H](Cc1ccccc1)C(=O)N[C@H](C(=O)N[C@H](C(=O)N[C@@H](Cc1ccccc1)C(=O)N[C@@H](CC(C)C)C(=O)NCC(=O)N[C@@H](C)C(=O)N[C@@H](CC(C)C)C(=O)N[C@@H](CCCCN)C(=O)N[C@@H](CO)C(=O)N[C@@H](Cc1ccccc1)C(=O)N[C@@H](CC(C)C)C(=O)N[C@@H](CCCCN)C(=O)O)[C@@H](C)O)[C@@H](C)CC [Peptide 89.0033]', '44 nM'),
  ('CC(C)C[C@H](NC(=O)CNC(=O)[C@H](CC(N)=O)NC(=O)[C@@H](N)Cc1ccc(O)cc1)C(=O)N[C@@H](CC(C)C)C(=O)N1CCC[C@H]1C(=O)N1CCC[C@H]1C(=O)N[C@@H](Cc1ccc(O)cc1)C(=O)N[C@@H](C)C(=O)N[C@@H](CO)C(=O)N[C@@H](CS)C(=O)N[C@@H](Cc1c[nH]cn1)C(=O)N[C@@H](CC(C)C)C(=O)N[C@H](C(=O)N[C@@H](CCC(=O)O)C(=O)O)[C@@H](C)O [Peptide 68.0054]', '> 20000 nM'),
  ('CC[C@H](C)[C@H](NC(=O)[C@H](C)NC(=O)[C@@H](NC(=O)[C@@H](NC(=O)[C@H](CC(N)=O)NC(=O)[C@H](CC(C)C)NC(=O)[C@H](Cc1ccccc1)NC(=O)[C@H](CCCCN)NC(=O)[C@@H](NC(=O)[C@H](CCCNC(=N)N)NC(=O)[C@H](CCC(N)=O)NC(=O)[C@H](CCCCN)NC(=O)[C@@H](N)CCC(=O)O)[C@@H](C)O)[C@@H](C)O)C(C)C)C(=O)N1CCC[C@H]1C(=O)N[C@@H](CC(=O)O)C(=O)O [Peptide 1601.19]', '6450 nM'),
  ('CC[C@H](C)[C@H](NC(=O)[C@@H](NC(=O)[C@H](CCSC)NC(=O)[C@H](Cc1ccc(O)cc1)NC(=O)CNC(=O)[C@@H](NC(=O)[C@H](CO)NC(=O)[C@@H](NC(=O)[C@H](CCC(N)=O)NC(=O)[C@@H](NC(=O)[C@H](CO)NC(=O)[C@H](CC(N)=O)NC(=O)[C@@H]1CCCN1C(=O)[C@@H](NC(=O)[C@@H](N)[C@@H](C)O)[C@@H](C)CC)C(C)C)[C@@H](C)CC)C(C)C)[C@@H](C)O)C(=O)O [Peptide 1601.42]', '16 nM'),
  ('CC[C@H](C)[C@H](NC(=O)CNC(=O)[C@H](CCC(=O)O)NC(=O)[C@H](Cc1c[nH]cn1)NC(=O)[C@@H](NC(=O)[C@H](Cc1ccc(O)cc1)NC(=O)[C@H](Cc1ccc(O)cc1)NC(=O)[C@H](CC(C)C)NC(=O)CN)C(C)C)C(=O)N[C@@H](CCCNC(=N)N)C(=O)N[C@H](C(=O)N[C@@H](Cc1ccc(O)cc1)C(=O)N[C@@H](Cc1ccccc1)C(=O)N[C@H](C(=O)N[C@@H](CCC(N)=O)C(=O)O)C(C)C)[C@@H](C)O [Peptide 90.0171]', '1.9 nM'),
  ('CC[C@H](C)[C@H](NC(=O)[C@H](CCCCN)NC(=O)[C@H](CC(N)=O)NC(=O)[C@@H](NC(=O)[C@@H](NC(=O)[C@H](CC(C)C)NC(=O)[C@@H](NC(=O)[C@H](CO)NC(=O)[C@H](CC(C)C)NC(=O)[C@H](C)N)[C@@H](C)O)C(C)C)C(C)C)C(=O)N[C@@H](CCCNC(=N)N)C(=O)NCC(=O)N[C@H](C(=O)N[C@@H](Cc1ccccc1)C(=O)N[C@@H](CCCCN)C(=O)O)[C@@H](C)O [Peptide F196.09]', '214 nM');
